- TGT: T1, Human OSM (human, UniProt P13725 26-221)
- T1 construct: Recombinant human OSM; also called hOSM; human Oncostatin M
- T1 sequence: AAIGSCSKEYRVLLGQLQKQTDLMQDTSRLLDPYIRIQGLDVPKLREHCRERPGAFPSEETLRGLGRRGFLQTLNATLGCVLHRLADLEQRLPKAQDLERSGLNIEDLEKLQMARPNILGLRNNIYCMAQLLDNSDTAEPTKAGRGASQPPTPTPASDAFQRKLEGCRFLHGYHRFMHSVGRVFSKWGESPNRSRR
- PROCEDURE DETAILS: BIAcore kinetics, purified antibody
ENDPOINT NAME: pKd
As a rule, pKd stands for the negative log10 of the concentration, concentration in M.

Worked cases, pKd given:
1. 10G8 chimaera (antibody, human IgG1, kappa, V domains shown, Mouse V regions on human gamma 1 wild type and human kappa constant regions; the entries called VH/VL domain (chimera) are full chains; also called 10G8 chimera; 10G8 Chimæra) VH: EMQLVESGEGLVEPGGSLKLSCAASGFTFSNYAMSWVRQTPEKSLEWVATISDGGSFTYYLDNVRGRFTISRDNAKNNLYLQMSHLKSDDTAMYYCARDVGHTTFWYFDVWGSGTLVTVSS VL: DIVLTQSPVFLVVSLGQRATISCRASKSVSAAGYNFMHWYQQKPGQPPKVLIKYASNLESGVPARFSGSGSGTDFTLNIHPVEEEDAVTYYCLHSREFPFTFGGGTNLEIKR; 9.74
2. Humanised 10G8 H0L1 (antibody, human IgG1, kappa, V domains shown, IgG1 kappa; mature H0 heavy chain and mature L1 light chain; also called Humanised 10G8 H0L1 parent) VH: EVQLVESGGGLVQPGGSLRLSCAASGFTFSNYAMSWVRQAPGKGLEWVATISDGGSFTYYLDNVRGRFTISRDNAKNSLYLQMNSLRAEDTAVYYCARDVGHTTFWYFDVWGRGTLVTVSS VL: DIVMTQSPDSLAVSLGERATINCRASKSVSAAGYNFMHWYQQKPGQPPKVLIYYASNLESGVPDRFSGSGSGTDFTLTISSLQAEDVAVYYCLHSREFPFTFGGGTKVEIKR; 9.90
3. 15E10h, non-competitive anti-OSM humanised antibody (antibody, human IgG1, kappa, V domains shown, also called Humanised 15E10; humanised 15E10) VH: QVQLVESGGGVVQPGRSLRLSCAASGFSLTNYGVHWVRQAPGKGLEWVAVIWRGGSTDYNAAFMSRFTISKDNSKNTLYLQMNSLRAEDTAVYYCAKSPNSNFYWYFDVWGRGTLVTVSS VL: EIVLTQSPATLSLSPGERATLSCSGSSSVSYMYWYQQKPGQAPRLLIEDTSNLASGIPARFSGSGSGTDYTLTISNLEPEDFAVYYCQQWSSYPPTFGQGTKLEIKR; 9.05

Just so you know, measured pKd for Humanised 10G8 H0(IGHV3-23)L1 (antibody, human IgG1, kappa, V domains shown, IgG1 kappa; also called H0(huCDRH1)L1; H0 (CDRH1 IGHV3_23) L1) VH: EVQLVESGGGLVQPGGSLRLSCAASGFTFSSYAMSWVRQAPGKGLEWVATISDGGSFTYYLDNVRGRFTISRDNAKNSLYLQMNSLRAEDTAVYYCARDVGHTTFWYFDVWGRGTLVTVSS VL: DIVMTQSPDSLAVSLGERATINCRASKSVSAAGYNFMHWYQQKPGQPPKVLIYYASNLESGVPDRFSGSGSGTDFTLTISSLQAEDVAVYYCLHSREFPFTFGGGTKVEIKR came out at 9.87
